target: Mcl-1/Bim interaction (Homo sapiens (Human), UniProt Q07820); assay: Cell Free Mcl-1: Bim Affinity Assay (Mcl-1 HTRF); details: TR-FRET, recombinant human Mcl-1(171-327), biotin-Bim(51-76); read-out: Mel-1 HTRF IC50
Sequence (Q07820 171-327): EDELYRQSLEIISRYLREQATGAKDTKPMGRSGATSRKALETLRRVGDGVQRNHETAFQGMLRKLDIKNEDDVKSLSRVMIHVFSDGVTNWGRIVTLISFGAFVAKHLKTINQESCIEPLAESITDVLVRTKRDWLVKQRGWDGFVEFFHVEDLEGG
assay_metric: IC50 (pM)

(1) CN[C@H]1CO[C@H]([C@H]2CCC[C@H](C)[C@@H](C)S(=O)(=O)NC(=O)c3ccc4c(c3)N(C[C@@H]3CC[C@H]32)C[C@@]2(CCCc3cc(Cl)ccc32)CO4)OC1 [Example 48]
(2) C[C@@H]1CC[C@H]([C@H]2OC[C@@H](N(C)C)CO2)[C@@H]2CC[C@H]2CN2C[C@@]3(CCCc4cc(Cl)ccc43)COc3ccc(cc32)C(=O)NS(=O)(=O)C[C@@H]1C [Example 76]
q: Quick one: lower IC50, 1 or 2 ? Reply briefly: the label of your chosen item.
a: 1
(1: 590 pM, 2: 6240 pM)

(a) CC(=O)N1C[C@@H]2O[C@H]([C@H]3CCC[C@H](C)[C@@H](C)S(=O)(=O)NC(=O)c4ccc5c(c4)N(C[C@@H]4CC[C@H]43)C[C@@]3(CCCc4cc(Cl)ccc43)CO5)O[C@@H]2C1 (stereo in doubt) [Example 16]
(b) C[C@@H]1[C@@H](C)C/C=C/[C@H]([C@H]2OC[C@@H](N(C)C)CO2)[C@@H]2CC[C@H]2CN2C[C@@]3(CCCc4cc(Cl)ccc43)COc3ccc(cc32)C(=O)NS1(=O)=O (relative stereo)
q: Form: Entry with minimum IC50 (choose one): a / b Pick one and reply with its label.
a: a
(a: 194 pM, b: 308 pM)

---

biological target: Mcl-1/Bim interaction (Homo sapiens (Human), UniProt Q07820); assay: Cell Free Mcl-1: Bim Affinity Assay (Mcl-1 HTRF); conditions: TR-FRET, recombinant human Mcl-1(171-327), biotin-Bim(51-76); read-out: Mel-1 HTRF IC50
pIC50: −log10 of the molar value.
assay_metric: pIC50

Examples with their reported pIC50 follow.
molecule	pIC50
C[C@@H]1[C@@H](C)CCC[C@@H]([C@H]2OC[C@@H](N3CC(F)C3)CO2)[C@@H]2CC[C@H]2CN2C[C@@]3(CCCc4cc(Cl)ccc43)COc3ccc(cc32)C(=O)NS1(=O)=O (single isomer, unassigned) [Example 50]	9.31
C[C@@H]1[C@@H](C)CCC[C@H]([C@H]2OC[C@H](N3C(=O)c4ccccc4C3=O)CO2)[C@@H]2CC[C@H]2CN2C[C@@]3(CCCc4cc(Cl)ccc43)COc3ccc(cc32)C(=O)NS1(=O)=O (relative stereo) [Example 44]	8.68

(P) CC(=O)N1C[C@@H]2O[C@@H]([C@H]3CCC[C@H](C)[C@@H](C)S(=O)(=O)NC(=O)c4ccc5c(c4)N(C[C@@H]4CC[C@H]43)C[C@@]3(CCCc4cc(Cl)ccc43)CO5)O[C@@H]2C1 (single isomer, unassigned) [Example 39]
(Q) C[C@@H]1[C@@H](C)CCC[C@H]([C@H]2OC[C@@H](N(C)C3CC3)CO2)[C@@H]2CC[C@H]2CN2C[C@@]3(CCCc4cc(Cl)ccc43)COc3ccc(cc32)C(=O)NS1(=O)=O [Example 70]
q: Of the two listed items, P and Q , which carries the larger pIC50 figure? Use the label to indicate which entry you chose.
a: P
(P: 9.43, Q: 8.88)
